- assayTarget: APE1 N174K N174K (Homo sapiens)
- testProtocol: EMSA
- measurementContext: N16 of strand 1 = tetrahydrofuran (THF) abasic site analog; EMSA: 50 mM Tris pH 8.0, 1 mM EDTA, 0.2 mg/ml BSA, 50 mg/ml sucrose, 0.5 mg/ml bromophenol blue, 1 mM DTT; 2 nM DNA, at least 20 min; 10% 59:1 native gel …
propertyName: pKd
Expect pKd as a plain number equal to -log10 of the molar concentration.

Data point: CGTTCGCTGATGCGCNCGACGGATCCGCAT / ATGCGGATCCGTCGAGCGCATCAGCGAACG [30-bp THF AP-DNA] ; pKd = 7.77

Provenance of the data: paper PMC12557600
